- measurement-target: T1, human interleukin-2 receptor α-chain (IL-2Rα; CD25), recombinant protein (human, UniProt P01589 22-240, limits assumed)
- T1 construct: also called huIL2R-a; hIL-2RA
- T1 sequence: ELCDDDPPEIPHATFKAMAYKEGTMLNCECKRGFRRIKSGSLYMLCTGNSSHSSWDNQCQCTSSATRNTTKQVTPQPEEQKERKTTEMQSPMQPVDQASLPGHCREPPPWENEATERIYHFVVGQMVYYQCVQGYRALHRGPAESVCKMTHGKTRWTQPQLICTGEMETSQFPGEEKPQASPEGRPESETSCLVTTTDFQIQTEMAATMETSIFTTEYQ
- method-description: P.E. off-rate SPR
property-label: koff
// unit must come after the numeric part

// field: koff; key: 2-MP01A02 VHH (periplasmic extract) (VHH, soluble VHH in periplasmic extract) VHH: QVQLVESGGGLVQPGGSLRLSCATSGFTFRNNFMSWVRQAPGKGLEWVSTISYGGESTTYAESVKGRFTISRDNAKNTLYLQMNNLKPEDTAVYYCAKATSYDSIRSGSRGQGTQVTVSS ; value = 0.00153 s⁻¹

// field: koff; key: 3-MP01E03 VHH (periplasmic extract) (VHH, soluble VHH in periplasmic extract) VHH: QVQLVESGGGLVQAGGSLRLSCTASGRTLSSYSMAWFRQAADKGREFVTAISSSGVVTHVLDSVKGRFTISRDNAKNTVYLQMNSLQPEDTALYFCAGTASSYSTYEANYNYWGQGTLVTVSS ; value = 0.000799 s⁻¹

From here, focus on the item given below.
// field: koff; key: 9-MP05G01 VHH (periplasmic extract) (VHH, soluble VHH in periplasmic extract) VHH: EVQLVESGGGLVQAGGSLRLSCAASGGSIYTYNMGWFRQAPGKEREFVAGTLWSGGDSVYADFAKGRFTLSRENAKNTLYLQMNSLKPEDTATYYCAIDPLSLTSDWRVDELSSWGKGTLVTVSS ; value = 0.000169 s⁻¹

Value source: patent US20240409645A1
